Experimental system: SpBzz1-D1
Test details: SPOT peptide array binding signal intensity (averaged, normalized) (arbitrary units (background-subtracted, floor 0; scale differs between SH3 domains)); higher = stronger binding of the SH3 domain to the peptide
Form field: SPOT peptide array binding signal intensity (one value per entry).
Assay readout: SPOT peptide array binding signal intensity

            binder  readout_relation  observed
0  SAPDIPPRSPNRNAH                 ≤         0
1  PPPPPPPPPPLPQSL                 =      4430
2  RRTRLRPPTPLSQLL                 =       486
3  TTAPALPSLPPPPLL                 =       124
4  PSPSSSPPPIPKTAN                 =       182
5  AGKRRLPLVRFKASD                 =       180
6  NLDRSKISLPDFDDE                 =      14.5
